- Assay comment: ADME solubility determination at pH 2.0 and pH 7.4
- Assay type: physicochemical
- Test parameters: aqueous buffer, thermodynamic from solid; PBS pH 2.0, shaken at 25° C. for 24 hours, LC-MS/MS; read-out: Solubility at pH 2.0
Recorded endpoint: solubility at 24 h

Some compounds with recorded solubility at 24 h:
| Substance smiles | solubility at 24 h |
| --- | --- |
| COc1ncnc(C2CC2)c1-c1ncc2cnn(Cc3ccc(-c4nc(C(F)(F)F)cn4C(C)C)c(F)c3)c2n1 | > 10 µM |
| COc1ncnc(C2CC2)c1-c1ncc2cnn(Cc3ccc(-n4nc(C(F)(F)F)cc4C(C)C)cc3)c2n1 | < 10 µM |
| CCn1cc(C(F)(F)F)nc1-c1ccc(Cn2ncc3cnc(-c4c(OC)ncnc4C4CN(C)C4)nc32)cc1 | > 10 µM |

Here is the next item to consider.
Using the record for CCn1cc(C(F)(F)F)nc1-c1ccc(Cn2ncc3cnc(-c4c(OC)ncnc4OC)nc32)cc1 , report its solubility at 24 h.
> 10 µM

====

Each entry below carries its reported solubility at 24 h.
- Assay comment: ADME solubility determination at pH 2.0 and pH 7.4
- Format: physicochemical
- Test parameters: aqueous buffer, thermodynamic from solid; PBS pH 2.0, shaken at 25° C. for 24 hours, LC-MS/MS; read-out: Solubility at pH 2.0

// solved cases for solubility at 24 h follow
| Compound | Recorded endpoint | Obs value |
| --- | --- | --- |
| CCOc1nn(Cc2ccc(-c3nc(C(F)(F)F)cn3CC)cc2)c2nc(-c3c(OC)ncnc3C3CC3)ncc12 | solubility at 24 h | < 10 µM |
| COc1nc(C)nc(C2CC2)c1-c1ncc2cnn(Cc3ccc(-c4nc(C(F)(F)F)cn4C)cc3)c2n1 | solubility at 24 h | > 10 µM |

I have this compound here, CCn1cc(C(F)(F)F)nc1-c1ccc(C(C)n2ncc3cnc(-c4c(OC)ncnc4C(C)C)nc32)cc1F (stereo not shown) , and I need its recorded solubility at 24 h.
> 10 µM

Returns the measured solubility at 24 h for the input compound. Input: COc1ncnc(C2(C)CC2)c1-c1ncc2cnn(Cc3ccc(-c4nc(C(F)(F)F)cn4C(C)C)cc3)c2n1
> 10 µM

Find the recorded solubility at 24 h belonging to COc1ncnc(C2CC2)c1-c1ncc2cnn([C@H]3CCc4cc(-c5nc(C(F)(F)F)cn5C(C)C)ccc43)c2n1 and report it.
< 10 µM

Looking for the measured solubility at 24 h of CCc1nc2cnc(-c3c(OC)ncnc3C3CC3)nc2n1Cc1ccc(-n2nc(C(F)(F)F)cc2C)cc1 , can you help?
> 10 µM

Name the reported solubility at 24 h value associated with the compound COc1ncnc(C2(C)CC2)c1-c1ncc2cnn(Cc3ccc(-n4nc(C(F)(F)F)cc4C)cc3)c2n1
> 10 µM

====

- Assay comment: Liver microsomal stability, rat liver microsomes
- Assay type: in vitro ADME
- Test parameters: 1 μM compound, NADPH, read-out: t1/2 (min) in RLM
half-life at 1 μM by entry:

// solved cases for half-life at 1 μM follow
| Compound | half-life at 1 μM |
| --- | --- |
| COc1cnn(C2CC2)c1-c1ncc2cnn(Cc3ccc(-c4nc(C(F)(F)F)cn4C)cc3)c2n1 [Example 81] | < 25 min |
| COc1ncnc(C2CC2)c1-c1ncc2cnn(Cc3ccc(-n4nc(C(F)(F)F)cc4-c4ccco4)cc3)c2n1 [Example 30] | < 25 min |
| COc1ncnc(C2CC2)c1-c1ncc2cnn(Cc3ccc(-n4nc(C(F)F)cc4C)cc3)c2n1 [Example 50] | > 25 min |
| CCn1cc(C(F)(F)F)nc1-c1ccc(Cn2nc(OC)c3cnc(-c4c(OC)ncnc4C4CC4)nc32)cc1 [Example 176] | > 25 min |
| COc1ncnc(C)c1-c1ncc2cnn(Cc3ccc(-n4nc(C(F)(F)F)cc4C)cc3)c2n1 [Example 48] | > 25 min |
| COc1ncnc(C2CC2)c1-c1ncc2cnn(Cc3ccc(-c4nc(C(F)(F)F)oc4C)cc3)c2n1 [Example 127] | > 25 min |
| COc1nc(N)nc(C2CC2)c1-c1ncc2cnn(Cc3ccc(-n4nc(C(F)(F)F)cc4C)cc3)c2n1 [Example 112] | > 25 min |
| COc1ncnc(C2CC2)c1-c1ncc2cnn(Cc3ccc(-c4nc(C(F)(F)F)nn4C)c(F)c3)c2n1 [Example 57] | > 25 min |
| COc1ncnc(C2CC2)c1-c1ncc2c(OC)nn(C(C)c3ccc(-c4nc(C(F)(F)F)cn4CCF)cc3)c2n1 (centres unmarked) [Example 177] | > 25 min |
| COc1ncnc(C2CC2)c1-c1ncc2cnn(Cc3ccc(-c4nc(C(F)(F)F)nn4C(C)C)cc3)c2n1 [Example 58] | > 25 min |

Data request, read-out half-life at 1 μM, for COc1ncnc(C2CC2(C)C)c1-c1ncc2cnn(Cc3ccc(-c4nc(C(F)(F)F)cn4C(C)C)cc3)c2n1 (centres unmarked) [Example 108]
< 25 min

Param item = COc1ncnc(C2CC2)c1-c1ncc2cnn(C(C)c3ccc(-c4nc(C(F)(F)F)cn4CCF)cc3)c2n1 (centres unmarked) [Example 141] ; retrieve measured half-life at 1 μM.
> 25 min

Would you kindly share the measured half-life at 1 μM for COc1ncnc(C2CC2)c1-c1ncc2ncn(Cc3ccc(-n4nc(C(F)(F)F)cc4C)cc3)c2n1 [Example 210] ?
> 25 min

For CCn1cc(C(F)(F)F)nc1-c1ccc(Cn2nc(C#N)c3cnc(-c4c(OC)ncnc4C4CC4)nc32)cc1 [Example 172] , what is its reported half-life at 1 μM?
< 25 min

Recorded half-life at 1 μM of CCn1cc(C(F)(F)F)nc1-c1ccc(Cn2ncc3cnc(-c4c(OC(C)(C)C)ncnc4C4CC4)nc32)cc1 [Example 59] , please.
< 25 min

Sample COc1ncnc(C2CC2)c1-c1ncc2nc(C(C)C)n(Cc3ccc(-n4nc(C(F)(F)F)cc4C)cc3)c2n1 [Example 212] — what was its half-life at 1 μM?
> 25 min

Which half-life at 1 μM reading was recorded for the compound CCn1cc(C(F)(F)F)nc1-c1ccc(Cn2ncc3cnc(-c4c(OC)ncnc4OC)nc32)cc1 [Example 87] ?
> 25 min

Reported half-life at 1 μM for COCCOc1ncnc(C2CC2)c1-c1ncc2cnn(Cc3ccc(-n4nc(C(F)(F)F)cc4C)cc3)c2n1 [Example 43] : what is it?
< 25 min

Entry under review: CCn1cc(C(F)(F)F)nc1-c1ccc(Cn2ncc3cnc(-c4c(OC)cnn4C4CCC4)nc32)cc1 [Example 84] . Reported half-life at 1 μM?
< 25 min

For the compound COc1ncnc(C2CC2)c1-c1ncc2c(OC)nn([C@@H](C)c3ccc(-c4nc(C(F)(F)F)cn4C(C)C)cc3)c2n1 [Example 181] , what half-life at 1 μM is on record?
> 25 min

Requested field: half-life at 1 μM. Item: CC(C)Oc1ncnc(C2CC2)c1-c1ncc2cnn(Cc3ccc(-c4nc(C(F)(F)F)cn4C)cc3)c2n1 [Example 40]
< 25 min

So what's the measured half-life at 1 μM for this one? COc1ncnc(C2(C)CC2)c1-c1ncc2cnn(Cc3ccc(-c4nc(C(F)(F)F)cn4C)cc3)c2n1 [Example 104]
< 25 min

Entry under review: COc1ncnc(C2CC2)c1-c1ncc2cnn(Cc3ccc(-c4nc(C(F)(F)F)sc4C)cc3)c2n1 [Example 125] . Reported half-life at 1 μM?
> 25 min

Data request, read-out half-life at 1 μM, for CCn1cc(C(F)(F)F)nc1-c1ccc([C@H](C)n2ncc3cnc(-c4c(OC)ncnc4OC)nc32)cc1 [Example 88]
< 25 min

Value lookup for half-life at 1 μM; key = CCn1cc(C(F)(F)F)nc1-c1ccc(Cn2ncc3cnc(-c4c(OC)cnn4C4CC4)nc32)cc1 [Example 82]
< 25 min
